# Experimental system: Human BCMA (human) (UniProt Q02223)
# Assay text: SPR, IgG on chip, huBCMA analyte
Metric: Kd
Record the result as number plus unit.

For orientation, consider the following solved cases.
{"Binder": "COMBO_Rd4_6nM_C02 (antibody, V domains shown, IgG) VH: EVQLLESGGGLVQPGGSLRLSCAASGFTFSSYAMNWVRQAPGKGLEWVSAISDSGGFVYYADSVKGRFTISRDNSKNTLYLQMNSLRAEDTAVYYCARYWPMDSWGQGTLVTVSS VL: EIVLTQSPGTLSLSPGERATLSCRASQSVSSSYLAWYQQKPGQAPRLLMYDASIRATGIPDRFSGSGSGTDFTLTISRLEPEDFAVYYCQQYEFWPLTFGQGTKVEIK", "Result": "0.422 nM"}
{"Binder": "A02_Rd4_0.6nM_C26 (antibody, V domains shown, IgG) VH: EVQLLESGGGLVQPGGSLRLSCAASGFTFSSYAMNWVRQAPGKGLEWVSAILMSGGSTYYADSVKGRFTISRDNSKNTLYLQMNSLRAEDTAVYYCARYWPMSLWGQGTLVTVSS VL: EIVLTQSPGTLSLSPGERATLSCGPSQSVSSSYLAWYQQKPGQAPRLLMYDASIRATGIPDRFSGSGSGTDFTLTISRLEPEDFAVYYCQQYQSWPLTFGQGTKVEIK", "Result": "0.061 nM"}

Now for the binder whose Kd we want.
Request: Requested field: Kd. Item: C01_Rd4_0.6nM_C06 (antibody, V domains shown, IgG) VH: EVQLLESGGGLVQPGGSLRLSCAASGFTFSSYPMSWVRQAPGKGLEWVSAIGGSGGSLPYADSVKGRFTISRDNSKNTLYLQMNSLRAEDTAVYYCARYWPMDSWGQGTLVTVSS VL: EIVLTQSPGTLSLSPGERATLSCRASEAVPSTYLAWYQQKPGQAPRLLIYDASSRAPGIPDRFSGSGSGTDFTLTISRLEPEDFAVYYCQQYSAFPLTFGQGTKVEIK
Response: 0.847 nM
